Examples of compounds with documented Activity follow.
- Test system: Jurkat
- ASSAY_NAME: Inhibition of TNF-alpha-induced necroptosis in FADD-deficient Jurkat T cells
- Type: functional, cell-based, Homo sapiens
- Parameters: concentration or dose not given beside the values
Give the quantity in %, number only.

Worked examples, 5 compounds total:
COc1ccc(-n2c(SCC#N)nc3sc(C)c(C)c3c2=O)cc1
100
N#CCSc1nc2sc3c(c2c(=O)n1-c1ccc(Cl)c(Cl)c1)CCCC3
39
Cc1sc2nc(SCC#N)n(-c3ccc4c(c3)OCCO4)c(=O)c2c1C
100
CCOc1ccc(-n2c(SCC#N)nc3sc(C)c(C)c3c2=O)cc1
97
COc1ccccc1-n1c(SCC#N)nc2sc3c(c2c1=O)CCCC3
51.2

Ask | Look up Activity: C#CCSc1nc2sc3c(c2c(=O)n1-c1ccc(OC)cc1)CCC3
Reply | 63.4

Ask | Look up Activity: CSc1ccc(-n2c(SCC#N)nc3sc4c(c3c2=O)CCCC4)cc1
Reply | 70

Ask | Look up Activity: N#CCSc1nc2sc3c(c2c(=O)n1-c1cccc(Cl)c1)CCCC3
Reply | 66.9

Ask | Look up Activity: COc1ccc(-n2c(SCC#N)nc3sc4c(c3c2=O)CCCC4)cc1
Reply | 100

Ask | Look up Activity: COc1ccc(-n2c(SCCl)nc3sc4c(c3c2=O)CCCC4)cc1
Reply | 85

Ask | Look up Activity: CCc1c(C)sc2nc(SCC#N)n(-c3ccc(OC)cc3)c(=O)c12
Reply | 100
